Assayed System: human GcgR (Homo sapiens)
Sequence (P47871 26-477): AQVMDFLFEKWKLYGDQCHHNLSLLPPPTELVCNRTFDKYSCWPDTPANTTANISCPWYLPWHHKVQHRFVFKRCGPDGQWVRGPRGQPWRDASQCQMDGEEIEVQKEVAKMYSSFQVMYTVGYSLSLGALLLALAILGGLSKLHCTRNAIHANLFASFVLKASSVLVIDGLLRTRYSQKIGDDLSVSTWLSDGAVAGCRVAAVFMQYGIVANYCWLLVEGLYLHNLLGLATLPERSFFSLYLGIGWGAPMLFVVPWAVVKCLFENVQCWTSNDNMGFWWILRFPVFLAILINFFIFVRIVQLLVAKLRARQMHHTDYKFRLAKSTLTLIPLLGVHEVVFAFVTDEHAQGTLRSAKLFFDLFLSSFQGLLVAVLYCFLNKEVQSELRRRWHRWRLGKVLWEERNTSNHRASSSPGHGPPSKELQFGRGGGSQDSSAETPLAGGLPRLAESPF
Procedure Details: Functional cAMP activity in the presence of 1% HSA
Type: cell-based
Condition Parameters: read-out: cAMP Rel EC50, hGcgR
Starred links: 1 amine or outer side, 2 acyl side, 3 side chain; linkers in the order of their positions; H or OH if unused. Non-standard residues stand in square brackets, D forms with d. Groups on a side chain read outwards from the residue. No end group written: not given here. *: point of attachment. C20 diacid = O=C(O)CCCCCCCCCCCCCCCCCCC(=O)*; C18 diacid = O=C(O)CCCCCCCCCCCCCCCCC(=O)*; Phe(4-CN) = N#Cc1ccc(C[C@H](N)C(=O)O)cc1; αMePhe(2-F) = C[C@](N)(Cc1ccccc1F)C(=O)O; γGlu = O=C(O)[C@H](CCC(=O)[*:2])N[*:1]; NMeY = CN[C@@H](Cc1ccc(O)cc1)C(=O)O; αMe4Pal = C[C@](N)(Cc1ccncc1)C(=O)O; αMeY = C[C@](N)(Cc1ccc(O)cc1)C(=O)O; αMeF = C[C@](N)(Cc1ccccc1)C(=O)O; 4Pal = N[C@@H](Cc1ccncc1)C(=O)O; αMeL = CC(C)C[C@](C)(N)C(=O)O; αMeS = C[C@](N)(CO)C(=O)O; Orn = NCCC[C@H](N)C(=O)O; AEEA = NCCOCCOCC(=O)O; Aib = CC(C)(N)C(=O)O
Readout Name: log10(EC50) (log10 of the value in nM)
Heads up: the numbers are on a log10 scale; they represent EC50 in nM.

Worked examples, 5 substances total:
[
  {
    "Substance": "H-Y[Aib]QGTFTSDFS[Orn][αMeL]LDKK([γGlu-AEEA-γGlu-C18 diacid])AQ[Aib]AFIEYLLE[Aib]GHSSGAPPPSGS-NH2 [Example 245]",
    "Readout Name": "log10(EC50)",
    "Result Number": 3.05
  },
  {
    "Substance": "H-Y[Aib]QGTFTSDFS[Orn][αMeL]LDKK([AEEA-γGlu-C20 diacid])AQ[Aib]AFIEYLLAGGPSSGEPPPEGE-NH2 [Example 102]",
    "Readout Name": "log10(EC50)",
    "Result Number": 3.43
  },
  {
    "Substance": "H-Y[Aib]QGT[αMeF]TSD[4Pal][αMeS]I[αMeL]LD[Orn]K([γGlu-γGlu-C18 diacid])AQ[αMe4Pal]EFI[dE][αMeY]LIEGGPSSGAPPPSGE-NH2 [Example 1170]",
    "Readout Name": "log10(EC50)",
    "Result Number": 2.40
  },
  {
    "Substance": "H-Y[Aib]QGTFTSD[4Pal]SQ[αMeL]LDKK([γGlu-γGlu-C18 diacid])AQ[αMe4Pal]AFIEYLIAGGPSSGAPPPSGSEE-NH2 [Example 960]",
    "Readout Name": "log10(EC50)",
    "Result Number": 2.91
  },
  {
    "Substance": "H-Y[Aib]QGT[αMePhe(2-F)]TSD[4Pal][αMeS]I[αMeL]LD[Orn]K([γGlu-γGlu-C18 diacid])AQ[αMe4Pal]EFI[dE][αMeY]LIEGGPPS[Aib][Orn]PPP[Orn]SE-NH2 [Example 1228]",
    "Readout Name": "log10(EC50)",
    "Result Number": 2.27
  }
]

Please give log10(EC50), item by item, for the list that follows.
1. Y[Aib]QGT[αMePhe(2-F)]TSD[4Pal]SI[αMeL]LD[Orn]K([AEEA-γGlu-C18 diacid])AQ[αMe4Pal][Orn]FI[dE][αMeY]LIEGGPSSGDPPPESE-NH2 [Example 729]
2. H-Y[Aib]QGTFTSD[4Pal]S[Orn][αMeL]LDKK([γGlu-γGlu-C18 diacid])AQ[αMe4Pal]AFIE[αMeY]LIAGGPSSGEPPPSGS-NH2 [Example 1014]
3. H-Y[Aib]QGTFTSD[4Pal]SR[αMeL]LDKK([γGlu-γGlu-C18 diacid])AQ[αMe4Pal]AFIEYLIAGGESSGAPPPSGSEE-NH2 [Example 965]
4. H-Y[Aib]QGT[αMePhe(2-F)]TSD[4Pal][αMeS]I[αMeL]LD[Orn]K([AEEA-γGlu-C18 diacid])AQ[αMe4Pal]EFI[dE][αMeY]LIEGGPSSGAPPPSGGGEEE-NH2 [Example 1215]
5. Y[Aib]QGTFTSD[4Pal]SQ[αMeL]LDKK([AEEA-γGlu-C18 diacid])AQ[αMe4Pal]AFIE[αMeY]LIEGGPSSGAPPPEGS-NH2 [Example 852]
6. H-Y[Aib]QGTFTSD[4Pal]S[Orn][αMeL]LDKK([γGlu-γGlu-C18 diacid])AQ[αMe4Pal]AFIEYLIAGGPSSGEPPPSGTEE-NH2 [Example 981]
7. H-Y[Aib]QGTFTSDFSK[αMeL]LDKK([AEEA-γGlu-C20 diacid])AQ[Aib]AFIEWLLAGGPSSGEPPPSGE-NH2 [Example 21]
8. H-Y[Aib]QGTFTSDFSI[αMeL]LDKK([AEEA-γGlu-C20 diacid])AQ[Aib]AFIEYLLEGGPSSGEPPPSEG-NH2 [Example 288]

1: 2.44; 2: 2.44; 3: 2.63; 4: 2.43; 5: 3.09; 6: 2.68; 7: 3.18; 8: 3.55

Please give log10(EC50), item by item, for the list that follows.
1. H-Y[Aib]QGTFTSD[4Pal]S[Orn][αMeL]LDKK([γGlu-γGlu-C18 diacid])AQ[αMe4Pal]AFIEYLIAGGPSSGEPPPSGTEEE-NH2 [Example 982]
2. Y[Aib]QGT[αMePhe(2-F)]TSD[4Pal][αMeS]I[αMeL]LD[Orn]K([γGlu-γGlu-C18 diacid])AQ[αMe4Pal]EFI[dE][αMeY]LIEGGPSSGAPPPEGGGEEE-NH2 [Example 1221]
3. H-Y[Aib]QGTFTSD[4Pal]SQ[αMeL]LDKK([AEEA-γGlu-C18 diacid])AQ[αMe4Pal]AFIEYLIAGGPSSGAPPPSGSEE-NH2 [Example 1029]
4. H-Y[Aib]QGTFTSD[Phe(4-CN)]S[Orn][αMeL]LDKK([AEEA-γGlu-C18 diacid])AQ[Aib]AFIEYLLE[Aib]GPSSGAPPPSGS-NH2 [Example 191]
5. H-Y[Aib]QGTFTSD[4Pal]S[Orn][αMeL]LD[Orn]K([Glu-Glu-γGlu-C18 diacid])AQ[Aib]AFIE[αMeY]LLEGGPSSGAPPPSGSEE-NH2 [Example 1067]
6. H-Y[Aib]QGT[αMePhe(2-F)]TSD[4Pal][αMeS]I[αMeL]LD[Orn]K([γGlu-γGlu-C18 diacid])AQ[αMe4Pal]EFI[dE][αMeY]LIEGGPSSGAPPPSGSE-NH2 [Example 717]

1: 2.49; 2: 2.27; 3: 2.71; 4: 2.54; 5: 3.27; 6: 2.11

Please give log10(EC50), item by item, for the list that follows.
1. Y[Aib]QGTFTSD[4Pal]SQ[αMeL]LDKK([dE-γGlu-dE-C18 diacid])AQ[αMe4Pal]AFIEYLIE[Aib]GPSSGAPPPSGSEE-NH2 [Example 931]
2. H-Y[Aib]QGTFTSDFSK[αMeL]LDKK([AEEA-γGlu-C20 diacid])AQ[Aib]AFIEYLLAGGPSSGAPPPGGE-NH2 [Example 15]

1: 3.36; 2: 3.30

I am curious: what log10(EC50) value has been reported for H-[NMeY][Aib]QGT[αMeF]TSDYSILLDKIAAK([AEEA-AEEA-γGlu-C20 diacid])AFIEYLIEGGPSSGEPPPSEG-NH2 [Example 299] ? 3.23
